# PROTOCOL_DETAILS: In vitro cytotoxicity by MTT assay, HEK 293
# Type: cell-based, human
# DETAILS: human, HEK 293 cells, 1.23 μM, read-out: % cytotoxicity (100 − % cell survival) of HEK 293 cell line
// cytotoxicity at 72 h, 1.23 µM lookup, one value per entry

# STRUCTURE, cytotoxicity at 72 h, 1.23 µM, %
rows = [
    ("O=C(NS(=O)(=O)c1nnc(N=Cc2ccc(Cl)cc2)s1)c1ccccc1", 38),
    ("Nc1ccc(S(=O)(=O)Nc2nnc(S(=O)(=O)NC(=O)c3ccccc3N)s2)cc1", 46.5),
    ("Nc1ccc(S(=O)(=O)Nc2nnc(S(=O)(=O)NC(=O)c3ccc(Cl)cc3)s2)cc1", 36.5),
    ("CC(=O)Nc1ccc(S(=O)(=O)Nc2nnc(S(=O)(=O)NC(=O)c3ccc([N+](=O)[O-])cc3)s2)cc1", 47.1),
    ("CC(=O)Nc1ccc(S(=O)(=O)Nc2nnc(S(=O)(=O)NC(=O)c3cccc([N+](=O)[O-])c3)s2)cc1", 51.2),
    ("Nc1ccc(S(=O)(=O)Nc2nnc(S(=O)(=O)NC(=O)c3ccccc3)s2)cc1", 32.5),
    ("O=C(NS(=O)(=O)c1nnc(N=Cc2ccco2)s1)c1ccccc1", 35),
    ("CC(=O)Nc1ccc(S(=O)(=O)Nc2nnc(S(=O)(=O)NC(=O)c3ccc(N)cc3)s2)cc1", 35.7),
]
